- assay_target: MEK1^CA (human GST-MEK1, constitutively active, Ser218Asp and Ser222Asp) (Homo sapiens, UniProt Q02750, S218D/S222D)
- Construct: GST; made in house; host or cells: Escherichia coli
- Sequence (Q02750 whole entry S218D/S222D): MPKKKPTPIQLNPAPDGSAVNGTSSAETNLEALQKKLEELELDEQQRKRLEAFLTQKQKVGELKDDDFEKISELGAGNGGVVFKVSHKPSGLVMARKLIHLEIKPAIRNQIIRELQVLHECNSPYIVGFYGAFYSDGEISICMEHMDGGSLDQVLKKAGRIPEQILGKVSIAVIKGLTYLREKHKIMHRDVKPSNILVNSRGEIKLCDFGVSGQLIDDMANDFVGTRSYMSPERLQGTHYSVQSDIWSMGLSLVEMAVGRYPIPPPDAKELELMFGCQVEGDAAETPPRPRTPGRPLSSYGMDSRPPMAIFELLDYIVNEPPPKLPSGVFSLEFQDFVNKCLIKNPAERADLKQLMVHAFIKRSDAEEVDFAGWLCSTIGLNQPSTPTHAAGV
- assay_comment: MEK1 enzymatic activity assay (MEK1^CA / ERK2 / MBP, [γ-33P]ATP incorporation)
- Format: biochemical
- experimental_parameters: Table 3, benzamides of formula X; read-out: IC 50
pIC50: −log10 of the molar value.
# maps each entry to its pIC50

Some solved cases for reference:
CC(CO)NC(=N)c1c(O)nsc1Nc1ccc(C(=O)Nc2ccccc2)cc1 (stereo not shown) [drawing 812] :: 7.00 to 9.00
CC(C)NC(=N)c1c(O)nsc1Nc1ccc(C(=O)Nc2ccccc2)cc1 [drawing 810] :: 7.00 to 9.00
N=C(NCC1CCCCC1)c1c(O)nsc1Nc1ccc(C(=O)Nc2ccccc2)cc1 [drawing 811] :: < 6.30

Now, please, on to the next compound.
Which pIC50 is reported for this compound? N=C(NCCO)c1c(O)nsc1Nc1ccc(C(=O)Nc2ccccc2)cc1 [drawing 809] 6.30 to 7.00
